# ASSAY_OVERVIEW: NCI Yeast Anticancer Drug Screen. Data for the bub3 strain (AID 167)
# EXPERIMENTAL_CONTEXT: S. cerevisiae bub3 mutant strain, at 50.0 µM
Compounds without any hit were thinned out: in the full panel of roughly 79,000, 15% have a hit. Active and inactive are the calls of the source. Cut-off read from the data, not from the text of the source: active = growth inhibition above about 70%; inactive = the rest.
Classes used: active, inactive

{"columns": ["MOLECULE", "ASSIGNED_LABEL"],
 "data": [
  ["c1coc(C2=Nc3cccc4cccc(c34)N2)c1", "inactive"],
  ["CC(C(O)c1ccccc1)C(O)(C(F)(F)F)C(F)(F)F (stereo not drawn)", "inactive"],
  ["O=C1C=CC(=Nc2cc3c(cc2Br)-c2ccccc2C3Br)O1 (stereo not drawn)", "inactive"],
  ["S=C(N/N=C(/c1ccccc1)c1ccccn1)Nc1cccc(Cl)c1", "inactive"],
  ["Cc1cc(/C=C/c2cccc[n+]2C)c(C)n1-c1ccccc1", "inactive"],
  ["Cc1ccc(C)c(N2C(=O)C(=O)C(c3nc4ccccc4o3)C(=O)C2=O)c1", "active"],
  ["O=C(Nc1cccc(Br)c1)Oc1cccc2cccnc12", "active"],
  ["C[C@]12CCC(=O)C=C1CC[C@@H]1[C@@H]2[C@@H](O)C[C@@]2(C)[C@H]1CC[C@]2(O)C(=O)COC(=O)C1CCCC1", "active"],
  ["CCOc1ccccc1N1C(=O)C=CC1=O", "active"],
  ["N#CC1C=C(Cl)c2ccc(Cl)cc2N1C(=O)c1ccccc1 (stereo not drawn)", "active"],
  ["Cc1ccc(N=NC(C(=O)c2ccccc2)C(=O)c2ccccc2)cc1", "active"],
  ["OC(CCl)COc1c(Cl)c(Cl)c(Cl)c(Cl)c1Cl (stereo not drawn)", "inactive"],
  ["COC(=O)c1cc2c(c(C(=O)OC)c1O)C(=O)C=CC2=O", "inactive"],
  ["Cc1c(C)c2cc3c(=O)ccoc3c(C)c2oc1=O", "inactive"],
  ["O=C(/C=C/C(=O)c1ccc(O)cc1)c1ccccc1", "inactive"],
  ["O=[N+]([O-])c1ccc(Cl)cc1C=NC12CC3CC(CC(C3)C1)C2", "inactive"],
  ["COC(=O)C1CCC(c2ccccc2)CC1C(=O)OC (stereo not drawn)", "active"],
  ["Cc1c(C)n(-c2ccccc2)c2nc(S(C)(=O)=O)nc(S(C)(=O)=O)c12", "active"],
  ["O=C1Nc2ccccc2/C1=C\\c1ccccn1", "inactive"],
  ["O=C1C(=O)N(C(=O)c2ccc(Cl)c(Cl)c2)c2ccc(Cl)cc21", "active"],
  ["CCOC(=O)C1SC(=Nc2ccc(Cl)cc2)N=C1C (stereo not drawn)", "active"],
  ["Cc1nc(N)sc1N=Nc1cccc(Cl)c1Cl", "active"],
  ["C[n+]1c(-c2cccc(OCCCCCCCCOc3cccc(-c4c5cc(N)ccc5c5ccc(N)cc5[n+]4C)c3)c2)c2cc(N)ccc2c2ccc(N)cc21", "active"]
]}

###

# ASSAY_OVERVIEW: NCI Yeast Anticancer Drug Screen. Data for the bub3 strain (AID 167)
# EXPERIMENTAL_CONTEXT: S. cerevisiae bub3 mutant strain, at 50.0 µM, active compounds read high
This is part of a sample that, as a whole, favours compounds with a hit. Of some 79,000 tested, about 15% had one in any assay.
yes (1) means recorded growth inhibition is 80% or above; no (0) means it is below 80%.

{"columns": ["COMPOUND", "ASSIGNED_LABEL"],
 "data": [
  ["Nc1nc2nc(I)[nH]c2c(=O)[nH]1", "no (0)"],
  ["O=C(Oc1cccc2cccnc12)c1ccccc1", "yes (1)"],
  ["c1ccc2c(c1)Nc1ccccc1[P+]21c2ccccc2Nc2ccccc21", "yes (1)"],
  ["S=C(NCCNC(=S)[S][Sn]([c]1ccccc1)([c]1ccccc1)[c]1ccccc1)[S][Sn]([c]1ccccc1)([c]1ccccc1)[c]1ccccc1", "yes (1)"],
  ["CCCCCCCCCN(CCCCCCCCC)CC(O)c1cc2c(c3ccccc13)CCCC2 (stereo not given)", "yes (1)"],
  ["Nc1ccc2c(SCCSc3c4ccccc4nc4cc(N)ccc34)c3ccccc3nc2c1", "no (0)"],
  ["O=C(NNc1nc(-c2ccccc2)cs1)Nc1ccccc1", "yes (1)"],
  ["O=[N+]([O-])OC1CCCC(O[N+](=O)[O-])c2c1n([O-])c1ccccc1[n+]2=O (stereo not given)", "no (0)"],
  ["COc1cc2c(cc1OC)C(Cl)C(c1ccc(F)cc1)=C2Cl (stereo not given)", "no (0)"],
  ["O=Cc1cc(S(=O)(=O)c2ccc(O)c(C=O)c2)ccc1O", "yes (1)"]
]}
